system: IL-6; assay: THP-1 AlphaLISA IL-6 cytokine assay; type: cell-based; details: Homo sapiens, THP-1, differentiated THP-1 cells, LPS 24 hr then Nigericin 1 hour
parameter: IC50

1. C=C(CC(=O)OC1(c2ncc(C(F)(F)F)cn2)CCC1)C(=O)O [Example 52] :: > 100 µM
2. C=C(CC(=O)OC1(c2ccc(Br)cc2)CCC1)C(=O)O [Example 5] :: > 31.6 µM

Now let's try a different one.
Under IL-6: IC50 value of C=C(CC(=O)OC1(c2ccc(C(F)(F)F)s2)CCC1)C(=O)O [Example 32] ?
> 100 µM
